B1: HDV Ribozyme (parent)
chain: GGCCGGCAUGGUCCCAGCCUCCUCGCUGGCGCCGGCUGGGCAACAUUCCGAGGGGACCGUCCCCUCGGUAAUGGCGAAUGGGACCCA

Variants of: B1
Test: self-cleavage, relative activity (ratio to wild type); higher = more cleavage; co-transcriptional
Lab note: anything with self-cleavage at or over 0.1 counts as class 1; the rest go in class 0.

INSERT INTO measurements (mutation_notation, class) VALUES
  ('U12C C58G', 'class 1'),
  ('G28U G73C', 'class 0'),
  ('C3U U72A', 'class 1'),
  ('G29A U37A', 'class 1'),
  ('C49A C61G', 'class 1'),
  ('C14A U20G', 'class 0'),
  ('G10U C22A', 'class 0'),
  ('G74C A78G', 'class 1'),
  ('C19G C24U', 'class 0'),
  ('U65C A83G', 'class 1'),
  ('U37G G73A', 'class 0'),
  ('G31C G50A', 'class 1'),
  ('A45U U47C', 'class 1'),
  ('G1C A71G', 'class 0'),
  ('G35U C85U', 'class 1'),
  ('C44A C48G', 'class 1'),
  ('U65A', 'class 1'),
  ('C24A U65G', 'class 1'),
  ('A42U A78G', 'class 1'),
  ('G2C C4U', 'class 1'),
  ('C3G A70U', 'class 1'),
  ('G80A G82A', 'class 1'),
  ('C13G G50C', 'class 0'),
  ('U23C C58G', 'class 1'),
  ('C32G U65G', 'class 1'),
  ('A71C C75G', 'class 1'),
  ('G34C A77U', 'class 1'),
  ('G10A A51C', 'class 1'),
  ('U27A A43G', 'class 1'),
  ('G81C C85G', 'class 1'),
  ('G34U C86U', 'class 1'),
  ('G29U C41A', 'class 0');
